- protocol.description: Cytotoxicity against human Huh7ET cells by [3H]thymidine incorporation assay
- Format: cell-based, Huh-7
measure.name: CC50

smiles.notation	observed
COC(=O)N[C@H](C(=O)N1C[C@@H](C)C[C@H]1c1nc(-c2ccc(-c3ccc(-c4ccc5nc([C@@H]6C[C@H](C)CN6C(=O)[C@@H](NC(=O)OC)C(C)C)oc5c4)cc3)cc2)c[nH]1)C(C)C	> 20 µM

Q: CC50 lookup needed for COC(=O)N[C@H](C(=O)N1C[C@@H](C)C[C@H]1c1cc2ccc(-c3cc4sc(-c5ccc6[nH]c([C@@H]7C[C@H](C)CN7C(=O)[C@@H](NC(=O)OC)C(C)C)nc6c5)cc4s3)cc2[nH]1)C(C)C , thanks.
Result: > 20 µM

Q: CC50 lookup needed for COC(=O)N[C@H](C(=O)N1C[C@@H](C)C[C@H]1c1ncc(-c2ccc(-c3cc4sc(-c5ccc6[nH]c([C@@H]7C[C@H](C)CN7C(=O)[C@@H](NC(=O)OC)C(C)C)nc6c5)cc4s3)cc2)[nH]1)C(C)C , thanks.
Result: > 20 µM

Q: CC50 lookup needed for COC(=O)N[C@H](C(=O)N1C[C@@H](C)C[C@H]1c1nc2ccc(-c3ccc(-c4ccc5nc([C@@H]6C[C@H](C)CN6C(=O)[C@@H](NC(=O)OC)C(C)C)oc5c4)cc3)cc2o1)C(C)C , thanks.
Result: 7 µM

Q: CC50 lookup needed for COC(=O)N[C@H](C(=O)N1C[C@@H](C)C[C@H]1c1nc2cc(-c3cc4sc(-c5ccc6nc([C@@H]7C[C@H](C)CN7C(=O)[C@@H](NC(=O)OC)C(C)C)oc6c5)cc4s3)ccc2[nH]1)C(C)C , thanks.
Result: > 20 µM

====

- protocol.description: Cytotoxicity against human Huh7ET cells by [3H]thymidine incorporation assay
- Type: cell-based, Huh-7
Items are presented alongside their recorded CC50.

Solved entries:
smiles.notation	CC50
COC(=O)N[C@H](C(=O)N1C[C@@H](C)C[C@H]1c1ncc(-c2cc3sc(-c4ccc5[nH]c([C@@H]6C[C@H](C)CN6C(=O)[C@@H](NC(=O)OC)C(C)C)nc5c4)cc3s2)[nH]1)C(C)C	> 20 µM
COC(=O)N[C@H](C(=O)N1C[C@@H](C)C[C@H]1c1nc2cc(-c3ccc(-c4ccc5oc([C@@H]6C[C@H](C)CN6C(=O)[C@@H](NC(=O)OC)C(C)C)nc5c4)cc3)ccc2[nH]1)C(C)C	> 20 µM

As a next step, examine the molecule that follows.
Q: CC50 lookup needed for COC(=O)N[C@H](C(=O)N1C[C@@H](C)C[C@H]1c1nc2cc(-c3cc4sc(-c5ccc6oc([C@@H]7C[C@H](C)CN7C(=O)[C@@H](NC(=O)OC)C(C)C)nc6c5)cc4s3)ccc2[nH]1)C(C)C , thanks.
Result: > 20 µM

====

- protocol.description: Clearance in iv dosed rat
- Assay type: ADME, organism-based
- test.context: in vivo
measure.name: clearance

smiles.notation	observed
COC(=O)N[C@H](C(=O)N1C[C@@H](C)C[C@H]1c1ncc(-c2ccc(-c3cc4sc(-c5ccc6[nH]c([C@@H]7C[C@H](C)CN7C(=O)[C@@H](NC(=O)OC)C(C)C)nc6c5)cc4s3)cc2)[nH]1)C(C)C	8.1 mL/min/kg

Q: clearance lookup needed for COC(=O)N[C@H](C(=O)N1C[C@@H](C)C[C@H]1c1nc2cc(-c3cc4sc(-c5ccc6nc([C@@H]7C[C@H](C)CN7C(=O)[C@@H](NC(=O)OC)C(C)C)oc6c5)cc4s3)ccc2[nH]1)C(C)C , thanks.
Result: 6.2 mL/min/kg

Q: clearance lookup needed for COC(=O)N[C@H](C(=O)N1C[C@@H](C)C[C@H]1c1cc2ccc(-c3cc4sc(-c5ccc6[nH]c([C@@H]7C[C@H](C)CN7C(=O)[C@@H](NC(=O)OC)C(C)C)nc6c5)cc4s3)cc2[nH]1)C(C)C , thanks.
Result: 4.7 mL/min/kg
